- Tested on: THP1 cells
- assay: Cytotoxicity against THP1 cell cultures
- Type: cell-based, human
- recorded_conditions: read-out: THP1 cells (Cytotoxicity) IC50; THP1 cells
// values below are reported IC50

1) CN1CCCN2CCN(CCCN(Cc3ccccc3)CC2)CC1 [Bn1Me1Bcyclam (L2)]	> 20 µM

So, c1ccc(CN2CCCNCCN(Cc3ccccc3)CCCNCC2)cc1 [Bn2Cyclam (L10), 1,8-dibenzylcyclam] ? Its IC50 was > 25 µM

So, c1ccc(CN2CCN3CCCN(CC2)CCN(Cc2ccccc2)CC3)cc1 [Bn2PBCyclen (L4)] ? Its IC50 was > 25 µM

So, c1ccc(CN2CCN3CCN(CC2)CCN(Cc2ccccc2)CC3)cc1 [Bn2Bcyclen (L3)] ? Its IC50 was > 25 µM
